- method-description: gradient 5% acetonitrile 3 min, to 50% in 2 min, to 85% in 15 min, held 3 min, 100 µL/min
- condition-parameters: column: Zorbax Extend-C18 2.1 x 50 mm; eluents: water / acetonitrile, 0.1% formic acid
assay-readout: RP-LC retention time (s)

CCOc1ccc(NC(=O)c2cn3c(n2)CCCC3)cc1 :: 614
O=C(Cn1ccc2sccc2c1=O)Nc1ccc(F)cc1 :: 728
COc1ccccc1CCC(=O)N1C[C@@H]2C[C@H](NC(=O)c3cccs3)[C@H]1C2 :: 782
Cc1cc2nn(CC(=O)N3CCCC3)c(=O)n2c(-c2ccc(C(F)(F)F)cc2)n1 :: 774
O=C(CCCc1ccccc1)N1CCN2CCS(=O)(=O)N(C3CC3)C(=O)C2C1 (stereo unspecified) :: 852
CCc1nc2cc(N3CCCC(C(=O)NCC(C)C)C3)cnc2nc1CC (stereo unspecified) :: 790

###

- method-description: gradient 5% acetonitrile 3 min, to 50% in 2 min, to 85% in 15 min, held 3 min, 100 µL/min
- condition-parameters: column: Zorbax Extend-C18 2.1 x 50 mm; eluents: water / acetonitrile, 0.1% formic acid
assay-readout: RP-LC retention time (s)

Check out these entries, answers already filled in.
COc1ccccc1C(=O)NC1(C(F)(F)F)C(=O)N(CC(C)C)C2=C1C(=O)CC(C)(C)C2 (configuration not stated) :: 1070
CCCN(CCC)CCc1c[nH]c2ccc(C(N)=O)cc12 :: 640
Cc1noc(C)c1-c1ccc(S(=O)(=O)NC2CCC(C)CC2)cc1 (configuration not stated) :: 1030
O=C(Cn1c(=O)c2cc(C3CC3)nn2c2ncccc21)Nc1ccc2c(c1)OCCO2 :: 736
CCOc1ccc(NC(=O)c2cnn(-c3ccc(Br)cc3)c2)cc1 :: 1030
Cc1ccsc1C(=O)Nc1cccn2c(C3CCC3)nnc12 :: 805
CNCC[C@H](Oc1ccc(C(F)(F)F)cc1)c1ccccc1 :: 818
Fc1ccc(Br)cc1-c1nc2ccc(Cl)cn2c1Nc1ccc2c(c1)OCCO2 :: 929

A = CC(C)NC(=O)Cn1cccc(-c2nc(-c3ccc(Br)cc3)no2)c1=O
B = CCNC(=O)N1CCOc2ccc(N(C)C)cc2C1
C = CCOc1ccc(S(=O)(=O)N2CCC(c3noc(-c4ccc(Cl)cc4)n3)CC2)cc1
*Q* Let's sort these by RP-LC retention time, smallest first. Go ahead? Give me the labels in the order the question wants.
*A* B, A, C

###

- method-description: gradient 5% acetonitrile 3 min, to 50% in 2 min, to 85% in 15 min, held 3 min, 100 µL/min
- condition-parameters: column: Zorbax Extend-C18 2.1 x 50 mm; eluents: water / acetonitrile, 0.1% formic acid
assay-readout: RP-LC retention time (s)

COc1ccc(OC)c(C(O)CN2CCC(c3nc(C)no3)CC2)c1 (stereo not given) :: 574
Cc1cccc(OCc2nc(-c3ccc(NS(=O)(=O)c4cccs4)cc3)no2)c1 :: 1090
Cc1ccc(Cl)cc1N1CCN(C(=O)C2CCN(S(=O)(=O)c3cn(C(C)C)cn3)CC2)CC1 :: 964
CCc1nc(-c2csc(S(=O)(=O)N3CCC(C(=O)Nc4ccccc4)CC3)c2)no1 :: 952
CCOc1cccc(CN2C(=O)C3(CCOCC3)CC2c2nnnn2C(C)(C)C)c1 (stereo not given) :: 820
CC1CCCN(C(=O)c2ccc3c(c2)Sc2ncccc2C(=O)N3C(C)C)C1 (stereo not given) :: 850
O=C(NCc1cccnc1)c1cc2cc(Cl)ccc2[nH]1 :: 632
COc1ccc(-n2c(=O)n(C)c(=O)c3cc(C(=O)Nc4cc(F)cc(F)c4)cnc32)cc1 :: 970
COc1ccc(CNC(=O)Cc2csc3nc(-c4cccc(Br)c4)cn23)cc1 :: 886
COC(=O)c1c(C)[nH]c(C(=O)N2CCC(CC(=O)NCc3ccc(C)cc3)CC2)c1C :: 762
C[C@H]1CN(C(=O)c2ccc(C#N)cc2)C[C@@H]1c1nc(-c2cccnc2)no1 :: 717
COc1cc(NC(=O)CCc2c(-c3ccccc3)nc3ccccn23)cc(OC)c1 :: 671
O=C(O)c1cc(-c2cccc3ccccc23)nc2ccc(Br)cc12 :: 1090
CN(CC(=O)Nc1ccc(S(N)(=O)=O)cc1)c1nc2ccccc2s1 :: 662
COc1ccc(OCc2noc(CNC(=O)c3cc(C)oc3C)n2)cc1 :: 817

###

- method-description: gradient 5% acetonitrile 3 min, to 50% in 2 min, to 85% in 15 min, held 3 min, 100 µL/min
- condition-parameters: column: Zorbax Extend-C18 2.1 x 50 mm; eluents: water / acetonitrile, 0.1% formic acid
assay-readout: RP-LC retention time (s)

O=C(NCc1ccc(Cl)cc1)c1ccc(Oc2nccnc2N2CCSCC2)cc1 :: 986
CCOc1ncccc1CNC(=O)c1cnccn1 :: 600
O=C(CSc1ccc(N2CCCC(C(=O)NC3CC3)C2)nn1)Nc1cc(F)ccc1F (stereo unspecified) :: 617
Cc1noc(-c2cccn2Cc2ccccc2F)n1 :: 1050
Cc1ccc(N2CCN(C(=O)c3c(C)oc4nc(C)nc(N5CCOCC5)c34)CC2)c(C)c1 :: 1020
COC(=O)c1cc2c(=O)n(-c3ccc(NC(C)=O)cc3)ccc2nc1C :: 675
Cc1cc(-c2nnc(-c3ccc(F)cc3)o2)c(C)n1CC(=O)NCc1cc(F)cc(F)c1 :: 992
O=C(NC1CCCCC1)C1CCN(S(=O)(=O)c2cc(C(=O)N3CCCC3)cs2)CC1 :: 765

a = O=C(c1ccc(F)c(F)c1)N1CCC2(CC1)N=C(c1cccc(Br)c1)NO2
b = Cc1ccccc1OCC(=O)NCCN1CCN(S(C)(=O)=O)CC1
*Q* Of a versus b , which is the one with smaller reported RP-LC retention time? Lab log: write the label of the selected item as the result.
*A* b

###

- method-description: gradient 5% acetonitrile 3 min, to 50% in 2 min, to 85% in 15 min, held 3 min, 100 µL/min
- condition-parameters: column: Zorbax Extend-C18 2.1 x 50 mm; eluents: water / acetonitrile, 0.1% formic acid
assay-readout: RP-LC retention time (s)

Check out these entries, answers already filled in.
CCCN1CCN(C(=O)c2ccc(CS(=O)c3ccccc3Cl)o2)CC1 (stereo not drawn) :: 593
CCOc1cccc(CN2CC[C@@](C)(O)[C@H](N3CCCC3)C2)c1 :: 562
Cc1ccsc1CN1CCC(c2nc(-c3cnccn3)n[nH]2)CC1 :: 567
Cc1ccc(/C=C/c2nc(-c3ccc4c(c3)oc(=O)n4C(C)C)no2)o1 :: 659
O=C(NCc1cccnc1)C1(c2ccc(F)cc2)CC1 :: 568
Cc1ccc(CN2CCN(C3CCN(C(=O)Nc4ccc(C)c(F)c4)CC3)C(=O)C2=O)cc1 :: 817

A = O=C(CSCCSCC(=O)Nc1ccccc1)Nc1ccccc1
B = Cc1ccc(C2c3[nH]c4ccccc4c3CCN2C(=O)C2CC2)cc1 (stereo not drawn)
*Q* Of A versus B , which is the one with smaller reported RP-LC retention time? Lab log: write the label of the selected item as the result.
*A* A

I = CN1CCn2cc(S(=O)(=O)NCc3cc(F)cc(F)c3)cc2C1=O
II = O=C(Nc1ccc(SCc2nnc(-c3ccc4c(c3)OCO4)o2)cc1)C1CCCCC1
*Q* Could you kindly indicate whether I or II has the higher RP-LC retention time value? Lab log: write the label of the selected item as the result.
*A* II
(II: 1020 s, I: 691 s)

I = O=S(=O)(Nc1cccn2ncnc12)c1ccc(F)cc1
II = CCOc1ccc(-n2c(N3CCC(C)CC3)nc3cc(C(=O)OC)ccc3c2=O)cc1
*Q* Could you kindly indicate whether I or II has the higher RP-LC retention time value? Lab log: write the label of the selected item as the result.
*A* II

a = CC(C)c1ccc(-c2ccnc3c(C(=O)NCc4cccnc4)cnn23)cc1
b = Cc1ccccc1CNC(=O)C1(C)CCCN(C(=O)Nc2ccc(F)c(Cl)c2)C1 (stereo not drawn)
*Q* Of a versus b , which is the one with smaller reported RP-LC retention time? Lab log: write the label of the selected item as the result.
*A* a
(a: 723 s, b: 1040 s)

###

- method-description: gradient 5% acetonitrile 3 min, to 50% in 2 min, to 85% in 15 min, held 3 min, 100 µL/min
- condition-parameters: column: Zorbax Extend-C18 2.1 x 50 mm; eluents: water / acetonitrile, 0.1% formic acid
assay-readout: RP-LC retention time (s)

Cc1ccc(-c2noc(-c3nn(CC(=O)N4CCCC4)c4ccccc34)n2)cc1 :: 1080
O=S(=O)(Cc1ccc(F)cc1)NCC1(c2ccc(F)cc2)CC1 :: 700
CCCNC(=O)CN1c2ccc(F)cc2-c2ccccc2S1(=O)=O :: 824
Cc1cc(=O)n(CC(C)O)c(-c2ccccc2)n1 (configuration not stated) :: 753
CC1CC(=O)N(CC(=O)Nc2ccc3c(c2)OCCO3)c2ccccc2S1 (configuration not stated) :: 859
Cc1cc(NCC(=O)NC2CCCCC2)n2nc(-c3cccnc3)nc2n1 :: 646
CCOC(=O)Cn1c(=O)c2c(nc3n2CC(C)CN3c2ccc(OC)cc2)n(C)c1=O (configuration not stated) :: 888
O=C(NCCN1CCCCC1)C1CCN(c2nccnc2Sc2ccccc2)CC1 :: 666
Cc1cccc(S(=O)(=O)N2C[C@H]3CN(S(=O)(=O)c4ccc(C#N)cc4)C[C@@H](C2)O3)c1 :: 945
O=C(Cn1nc2c3sc(N4CCCCC4)nc3ncn2c1=O)Nc1ccc(Cl)cc1 :: 832
Cc1ccc(CNC(=O)c2ccc3c(c2)CC(=O)N3C)cc1C :: 765
NC(=O)COc1c(F)cc(SCCNS(=O)(=O)c2ccccc2)cc1F :: 847
